assay.details: Relaxivity measurements at 1.41 T in human plasma
Assay type: physicochemical
condition.parameters: 37° C., normalized to Gd
Consider the following compounds and their measured r1 human plasma readings.
The reply should consist of the numeric value with the unit placed after it.

// solved cases for r1 human plasma follow
[
  {
    "compound": "CCOCCOCCOc1ccc(CCC[C@H](C(=O)O)N2CCN([C@@H](CO)C(=O)[O-])CCN([C@@H](CO)C(=O)[O-])CCN([C@@H](CO)C(=O)[O-])CC2)cc1.[Gd+3]",
    "r1 human plasma": "7.7 L/mmol/s"
  },
  {
    "compound": "CCOCCOCCOc1ccc(CC(C(=O)O)N2CCN(CC(=O)[O-])CCN(CC(=O)[O-])CCN(CC(=O)[O-])CC2)nc1.[Gd+3] (stereo not drawn)",
    "r1 human plasma": "6.0 L/mmol/s"
  }
]

// returns reported r1 human plasma for input CCOCCOCCOc1ccc(CCC[C@@H](C(=O)O)N2CCN(CC(=O)[O-])CCN(CC(=O)[O-])CCN(CC(=O)[O-])CC2)cc1.[Gd+3]
7.5 L/mmol/s

// returns reported r1 human plasma for input CCOCCOCCOCCOc1ccc(CC(C(=O)O)N2CCN(CC(=O)[O-])CCN(CC(=O)[O-])CCN(CC(=O)[O-])CC2)cc1.[Gd+3] (stereo not drawn)
6.6 L/mmol/s

// returns reported r1 human plasma for input CCOCCOCCOc1ccc(CC(C(=O)O)N2CCN(CC(=O)[O-])CCN(CC(=O)[O-])CCN(CC(=O)[O-])CC2)cc1.[Gd+3] (stereo not drawn)
6.2 L/mmol/s

// returns reported r1 human plasma for input CCOCCOCCOc1ccc(CC(C(=O)O)N2CCN(CC(=O)[O-])CCN(C(C)C(=O)[O-])CCN(CC(=O)[O-])CC2)cc1.[Gd+3] (single isomer, unassigned) [Example 5]
6.9 L/mmol/s

// returns reported r1 human plasma for input CCOCCOCCOc1ccc(CC(C(=O)O)N2CCN(CC(=O)[O-])CCN(C(CO)C(=O)[O-])CCN(CC(=O)[O-])CC2)cc1.[Gd+3] (stereo not drawn)
5.7 L/mmol/s

// returns reported r1 human plasma for input CCOCCOCCOCCOc1ccc(CC(C(=O)O)N2CCN(CC(=O)[O-])CCN(C(COC)C(=O)[O-])CCN(CC(=O)[O-])CC2)cc1.[Gd+3] (stereo not drawn)
7.0 L/mmol/s

// returns reported r1 human plasma for input CCOCCOc1ccc(CC(C(=O)O)N2CCN(CC(=O)[O-])CCN(C(CC)C(=O)[O-])CCN(CC(=O)[O-])CC2)cc1.[Gd+3] (single isomer, unassigned) [Example 8]
7.2 L/mmol/s

// returns reported r1 human plasma for input CCOCCOCCOc1ccc(CCC[C@@H](C(=O)O)N2CCN(C(CO)C(=O)[O-])CCN(C(CO)C(=O)[O-])CCN(C(CO)C(=O)[O-])CC2)cc1.[Gd+3] (mixture of isomers)
8.5 L/mmol/s

// returns reported r1 human plasma for input CCOCCOCCOc1ccc(CC(C(=O)O)N2CCN(CC(=O)[O-])CCN(CC(=O)[O-])CCN(CC(=O)[O-])CC2)cn1.[Gd+3] (stereo not drawn)
6.2 L/mmol/s

// returns reported r1 human plasma for input O=C([O-])CN1CCN(C(Cc2ccc(OCC(F)(F)C(F)F)cc2)C(=O)O)CCN(CC(=O)[O-])CCN([C@@H](CO)C(=O)[O-])CC1.[Gd+3] (mixture of isomers)
11.7 L/mmol/s

---

Consider the following molecules and their measured Log P (partition coefficient butanol/buffer) readings.
assay.details: Partition coefficient (log P butanol/buffer)
Type: physicochemical
condition.parameters: 1-butanol / 50 mM Tris-HCl, pH 7.4, room temperature
Enter the number alone.

// solved cases for Log P (partition coefficient butanol/buffer) follow
[
  {
    "molecule": "CCOCCOCCOc1ccc(CC(C(=O)O)N2CCN(CC(=O)[O-])CCN(C(CO)C(=O)[O-])CCN(CC(=O)[O-])CC2)cc1.[Gd+3] (centres unmarked)",
    "recorded.measurement": "−1.61"
  },
  {
    "molecule": "O=C([O-])CN(CCN(CC(=O)[O-])CC(=O)[O-])CCN(CC(=O)[O-])C(COCc1ccccc1)C(=O)[O-].[Gd+3].[H+].[H+] (centres unmarked) [RC2, gadobenic acid, reference compound]",
    "recorded.measurement": "−2.07"
  }
]

// returns reported Log P (partition coefficient butanol/buffer) for input CCOCCOc1ccc(CC(C(=O)O)N2CCN(CC(=O)[O-])CCN(C(CC)C(=O)[O-])CCN(CC(=O)[O-])CC2)cc1.[Gd+3] (single isomer, unassigned) [Example 7]
−1.09

// returns reported Log P (partition coefficient butanol/buffer) for input O=C([O-])CN1CCN(C(Cc2ccc(OCC(F)(F)C(F)F)cc2)C(=O)O)CCN(CC(=O)[O-])CCN([C@@H](CO)C(=O)[O-])CC1.[Gd+3] (mixture of isomers)
−0.55

// returns reported Log P (partition coefficient butanol/buffer) for input CCOCCOCCOc1ccc(CC(C(=O)O)N2CCN(CC(=O)[O-])CCN(CC(=O)[O-])CCN(CC(=O)[O-])CC2)cn1.[Gd+3] (centres unmarked)
−1.81

---

measured.target: OATP1B3 (Homo sapiens, UniProt Q9NPD5)
Sequence (Q9NPD5 1-702): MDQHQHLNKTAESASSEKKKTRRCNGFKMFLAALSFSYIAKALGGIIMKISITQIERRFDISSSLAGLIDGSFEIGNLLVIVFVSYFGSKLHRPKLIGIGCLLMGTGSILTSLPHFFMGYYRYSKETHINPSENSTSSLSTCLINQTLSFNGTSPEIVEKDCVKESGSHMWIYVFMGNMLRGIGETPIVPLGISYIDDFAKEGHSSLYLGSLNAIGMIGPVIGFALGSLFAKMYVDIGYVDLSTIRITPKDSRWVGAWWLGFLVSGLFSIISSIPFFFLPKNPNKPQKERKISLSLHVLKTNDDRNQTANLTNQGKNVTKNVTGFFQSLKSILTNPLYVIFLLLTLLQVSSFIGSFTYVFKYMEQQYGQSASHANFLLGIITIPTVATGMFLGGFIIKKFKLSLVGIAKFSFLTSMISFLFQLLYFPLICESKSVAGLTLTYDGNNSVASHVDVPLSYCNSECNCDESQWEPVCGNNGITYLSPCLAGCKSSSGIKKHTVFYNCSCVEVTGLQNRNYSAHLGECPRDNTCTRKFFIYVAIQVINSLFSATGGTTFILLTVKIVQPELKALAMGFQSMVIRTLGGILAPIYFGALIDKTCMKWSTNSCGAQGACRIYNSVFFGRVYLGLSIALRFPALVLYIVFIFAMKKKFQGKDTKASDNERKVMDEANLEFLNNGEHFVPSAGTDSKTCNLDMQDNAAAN
assay.details: Uptake into stable transfected OATP1B3 HEK 293 cells
Type: cell-based
condition.parameters: 40 min incubation, relative to RC1 (Gd-EOB-DTPA)
Consider the following molecules and their measured Uptake into OATP1B3-HEK 293 cells readings.

[
  {
    "molecule": "CCOCCOc1ccc(CC(C(=O)O)N2CCN(CC(=O)[O-])CCN(CC(=O)[O-])CCN(CC(=O)[O-])CC2)cc1.[Gd+3] (stereo not drawn) [Example 32]",
    "Uptake into OATP1B3-HEK 293 cells": "22 % of RC1"
  },
  {
    "molecule": "CCOCCOc1ccc(CC(C(=O)O)N2CCN(CC(=O)[O-])CCN(C(COC)C(=O)[O-])CCN(CC(=O)[O-])CC2)cc1.[Gd+3] (stereo not drawn) [Example 38]",
    "Uptake into OATP1B3-HEK 293 cells": "24 % of RC1"
  },
  {
    "molecule": "CCCCOc1ccc(CCC[C@@H](C(=O)O)N2CCN(CC(=O)[O-])CCN(CC(=O)[O-])CCN(CC(=O)[O-])CC2)cc1.[Gd+3] [Example 31]",
    "Uptake into OATP1B3-HEK 293 cells": "194 % of RC1"
  },
  {
    "molecule": "CCOCCOCCOc1ccc(CC(C(=O)O)N2CCN(CC(=O)[O-])CCN(CC(=O)[O-])CCN(CC(=O)[O-])CC2)cn1.[Gd+3] (stereo not drawn) [Example 16]",
    "Uptake into OATP1B3-HEK 293 cells": "25 % of RC1"
  },
  {
    "molecule": "CCOCCOCCOCCOc1ccc(CC(C(=O)O)N2CCN(CC(=O)[O-])CCN(C(CO)C(=O)[O-])CCN(CC(=O)[O-])CC2)cc1.[Gd+3] (stereo not drawn) [Example 42]",
    "Uptake into OATP1B3-HEK 293 cells": "20 % of RC1"
  }
]

Would you kindly look at the next entry?
So what Uptake into OATP1B3-HEK 293 cells did CCOc1ccc(CCOCC(C(=O)O)N2CCN(CC(=O)[O-])CCN(CC(=O)[O-])CCN(CC(=O)[O-])CC2)cc1.[Gd+3] (stereo not drawn) [Example 1] get with OATP1B3 (Homo sapiens, UniProt Q9NPD5)?
24 % of RC1

The measured values listed here are drawn from patent US20260083864A1.
